Tested on: EKVX
experiment: NCI tumour cell line growth inhibition, 48 h
Activity calls are given as the source filed them. No stated cut-off is given here; in the data, active = GI50 up to about 1.1 µM and inactive = higher.
Some compounds, each annotated with its measured GI50.

compound: Cc1ccc(S(=O)(=O)N2CCSCCSCCSCCSCC2)cc1
GI50: 48.5 µM (inactive)
//
compound: O=c1c(C(c2ccc(-c3ccccc3)cc2)c2c(O)oc3ccccc3c2=O)c(O)oc2ccccc12
GI50: 46.6 µM (inactive)
//
compound: Cc1ccc2c(c1)S(=O)(=O)c1ccc3ccccc3c1N2
GI50: > 100 µM (inactive)
//
compound: CCCC(=O)OC1C(CO)OC(n2cc(F)c(=O)[nH]c2=O)C1F (stereo not given)
GI50: 67 µM (inactive)
//
compound: C=CCC1C(O[Si](C)(C)C(C)(C)C)C(CO[Si](C)(C)C(C)(C)C)OC1n1ccc(=O)[nH]c1=O (stereo not given)
GI50: 1.41 µM (inactive)

###

Tested on: SNB-78
experiment: NCI tumour cell line growth inhibition, 48 h
Activity calls are given as the source filed them. Cut-off read from the data, not from the text of the source: active = GI50 up to about 1.1 µM and inactive = higher.
Some molecules, each annotated with its measured GI50.
property-name: GI50

molecule: CC(=O)OC1COC(n2ccc3cc(Br)c([N+](=O)[O-])cc32)C(OC(C)=O)C1OC(C)=O (stereo unspecified)
measured-on: SNB-78
reported-result: 20.8 µM (inactive)
//
molecule: CC1C(=O)OC2CC[N+]3(CC(=O)c4ccc(Br)cc4)CC=C(COC(=O)C(C)(O)C1(C)O)C23 (stereo unspecified)
measured-on: SNB-78
reported-result: 211 µM (inactive)
//
molecule: CCCCN/C(=N\C#N)N(Cc1ccccc1)Cc1ccccc1
measured-on: SNB-78
reported-result: 18.2 µM (inactive)
//
molecule: COc1ncn(C2C=C(CO)C(O)C2O)c(=O)n1 (stereo unspecified)
measured-on: SNB-78
reported-result: > 100 µM (inactive)
//
molecule: N#C/C(=C/c1ccc2c(c1)OCO2)C(=O)c1ccccc1
measured-on: SNB-78
reported-result: > 100 µM (inactive)
//
molecule: COC1=C(OC)CCC(/C(C#N)=C/c2ccc(OC)c(OC)c2)=C1
measured-on: SNB-78
reported-result: 53.2 µM (inactive)
//
molecule: S=c1sc2sc(=S)sc2s1
measured-on: SNB-78
reported-result: 54.5 µM (inactive)
//
molecule: Cc1ccccc1NC(=O)C(=O)CC(=O)c1sc(-n2nc(-c3ccccc3)cc2-c2ccccc2)nc1C
measured-on: SNB-78
reported-result: > 100 µM (inactive)
//
molecule: Brc1c2nc3ccccc3nc2n2ccc3ccccc3c12
measured-on: SNB-78
reported-result: > 100 µM (inactive)
//
molecule: Cc1c2cc[n+](C)cc2c(C)c2c1oc1ccccc12
measured-on: SNB-78
reported-result: 4.02 µM (inactive)
//
molecule: N[C@H](C(=O)O)[C@H]1ON=C(Cl)[C@@H]1O
measured-on: SNB-78
reported-result: 28.1 µM (inactive)

###

Tested on: KM12
experiment: NCI tumour cell line growth inhibition, 48 h
Active and inactive are the calls of the source. Rule as the data show it: active = GI50 up to about 1.1 µM and inactive = higher.
Some compounds, each annotated with its measured GI50.
property-name: GI50

compound: Clc1cccc(N2CCN(CCN3CCc4c([nH]c5ccccc45)C3c3cccnc3)CC2)c1 (stereo not given)
measured-on: KM12
property-name: GI50
reported-result: 8.05 µM (inactive)
--
compound: CC(C)(C)[Si](C)(C)O/N=C\c1cccc(O[Si](C)(C)C(C)(C)C)c1
measured-on: KM12
property-name: GI50
reported-result: 18 µM (inactive)
--
compound: O=C(CN1CCN(c2ccccn2)CC1)N1CCCn2c1nc1ccccc1c2=O
measured-on: KM12
property-name: GI50
reported-result: > 100 µM (inactive)
--
compound: CCCCNC(=O)C1=C(C)NC(C)=C(C(=O)NCCCC)C1
measured-on: KM12
property-name: GI50
reported-result: > 100 µM (inactive)
--
compound: O=c1c2ccccc2n2nnc3ccc(NCCCNCCNCCCNc4ccc5nnn6c7ccccc7c(=O)c4c56)c1c32
measured-on: KM12
property-name: GI50
reported-result: 3.24 µM (inactive)

###

System: NCI-H522
experiment: NCI tumour cell line growth inhibition, 48 h
Calls of active or inactive are those of the source. No stated cut-off is given here; in the data, active = GI50 up to about 1.1 µM and inactive = higher.
Some compounds, each annotated with its measured GI50.

compound: CC1(Cl)C(=O)NC(=O)N(C2CC(N=[N+]=[N-])C(CO)O2)C1N=[N+]=[N-] (stereo not given)
measured-on: NCI-H522
GI50: > 100 µM (inactive)
--
compound: CCSCC(N)C(=O)O (stereo not given)
measured-on: NCI-H522
GI50: > 100 µM (inactive)
--
compound: COC(=O)C(Cc1nc2ccc(Cl)cc2nc1O)C(=O)C(=O)Nc1ccccc1[N+](=O)[O-] (stereo not given)
measured-on: NCI-H522
GI50: > 100 µM (inactive)
--
compound: O=c1[nH]nc(Nc2ccccc2)c2nnn(Cc3ccccc3)c12
measured-on: NCI-H522
GI50: > 100 µM (inactive)
--
compound: O=C1/C(=C/c2ccc(Br)s2)NC(=S)N1CN1CCOCC1
measured-on: NCI-H522
GI50: 64 µM (inactive)
--
compound: COc1ccc2c(c1)[C@@H]1c3cc(OC)c(OC)cc3CCN1CCC2
measured-on: NCI-H522
GI50: > 100 µM (inactive)
--
compound: O=C(O)C1C(C(=O)O)C(C(=O)O)C1C(=O)O (stereo not given)
measured-on: NCI-H522
GI50: > 100 µM (inactive)
--
compound: O=C1N[C@H](C(=O)O)[C@@H](c2ccc(OCc3ccccc3)cc2)O1
measured-on: NCI-H522
GI50: 37.3 µM (inactive)
--
compound: CCn1c2nc(=O)n(CCCCCCCCSC(c3ccccc3)(c3ccccc3)c3ccccc3)c(=O)c-2nc2ccccc21
measured-on: NCI-H522
GI50: 3.13 µM (inactive)
--
compound: CSc1nc(C)cc(Nc2ccc(O)c(CN3CCOCC3)c2)n1
measured-on: NCI-H522
GI50: > 100 µM (inactive)

###

Tested on: RXF 393
experiment: NCI tumour cell line growth inhibition, 48 h
Active and inactive are the calls of the source. Rule as the data show it: active = GI50 up to about 1.1 µM and inactive = higher.
Some compounds, each annotated with its measured GI50.

compound: CC1(Cl)C(=O)NC(=O)N(C2CC(N=[N+]=[N-])C(CO)O2)C1N=[N+]=[N-] (stereo not drawn)
GI50: > 100 µM (inactive)
--
compound: COC(=O)C(Cc1nc2ccc(Cl)cc2nc1O)C(=O)C(=O)Nc1ccccc1[N+](=O)[O-] (stereo not drawn)
GI50: > 100 µM (inactive)
--
compound: COC(=O)Nc1nc2cc(C(=O)c3cccs3)ccc2[nH]1
GI50: 0.0134 µM (active)
--
compound: CCC(O)(c1ccc(OC)cc1)C(c1ccc(OCc2ccccc2)cc1)c1ccc(OCc2ccccc2)cc1 (stereo not drawn)
GI50: > 100 µM (inactive)
--
compound: CSc1nc(C)cc(Nc2ccc(O)c(CN3CCOCC3)c2)n1
GI50: > 100 µM (inactive)
--
compound: COc1ccc(NC(=O)CC/C(CC(=O)C(C)(C)C)=N\NC(=O)C(N)=O)cc1
GI50: > 100 µM (inactive)
--
compound: COC1=C(OC)CCC(/C(C#N)=C/c2ccc(OC)c(OC)c2)=C1
GI50: 36.7 µM (inactive)
--
compound: O=C1NC2c3c(I)sc(I)c3C(=O)C2O1 (stereo not drawn)
GI50: 5.56 µM (inactive)

###

System: HOP-62
experiment: NCI tumour cell line growth inhibition, 48 h
The source made the active and inactive calls. No stated cut-off is given here; in the data, active = GI50 up to about 1.1 µM and inactive = higher.
Some molecules, each annotated with its measured GI50.

molecule: COc1ccccc1NC(=O)C1=C(C)NC(C)=C(C(=O)Nc2ccccc2OC)C1C1=CC=COC1
measured-on: HOP-62
GI50: 27.5 µM (inactive)
//
molecule: Nc1ncnc2c1ccn2CC#CCO
measured-on: HOP-62
GI50: > 100 µM (inactive)
//
molecule: CN(C)c1ccc(C(=O)NCCCCCCC(=O)NO)cc1
measured-on: HOP-62
GI50: 2.3 µM (inactive)
//
molecule: O=c1[nH]nc(Nc2ccccc2)c2nnn(Cc3ccccc3)c12
measured-on: HOP-62
GI50: 4.52 µM (inactive)
//
molecule: COC(=O)c1c(O)ccc2c1c1cc3ccccc3c(O)c1n2CCc1ccc(OC)c(OC)c1
measured-on: HOP-62
GI50: > 100 µM (inactive)
//
molecule: O=C1CC(c2n[nH]c3ccccc23)C(=O)N1c1ccccc1 (configuration not stated)
measured-on: HOP-62
GI50: > 100 µM (inactive)
//
molecule: Nc1nc(Cl)cc(NCC(O)CO)n1 (configuration not stated)
measured-on: HOP-62
GI50: > 100 µM (inactive)
//
molecule: O=c1oc2ccc(Cl)cc2cc1-c1cn2ccccc2n1
measured-on: HOP-62
GI50: 3.67 µM (inactive)
//
molecule: N=S(=O)(c1ccccc1)c1ccccc1
measured-on: HOP-62
GI50: > 100 µM (inactive)
//
molecule: N=C(N)NS(=O)(=O)c1ccc(/N=N/c2c(O)c(C(=O)O)cc3ccccc23)cc1
measured-on: HOP-62
GI50: > 100 µM (inactive)
//
molecule: CCSCC(N)C(=O)O (configuration not stated)
measured-on: HOP-62
GI50: > 100 µM (inactive)
//
molecule: O=C1C(=Cc2c(O)cc(O)cc2O)C(=O)c2ccccc21
measured-on: HOP-62
GI50: > 100 µM (inactive)
